Parameter: clearance. Scope: all listed entries.
experiment: PK / tissue distribution in Sprague-Dawley rats; assay type: in vivo; conditions: female, rat, plasma, IV 1 mg/kg, read-out: CL post IV Dosing @1 mg/kg
quantity-name: clearance (mL/min/kg)

{"compound": "C=C[C@@]1(F)[C@H](O)[C@@H](COP(=O)(S)OP(=O)(O)OC2OC([C@H](COC(C)=O)OC(C)=O)C(OC(C)=O)C(OC(C)=O)C2OC(C)=O)O[C@H]1n1cnc2c(N)ncnc21 (stereo partly drawn) [Example 41C]", "quantity-name": "clearance", "value-observed": 9.76}
{"compound": "C=C[C@@]1(O)[C@H](O)[C@@H](COP(=O)(S)OP(=O)(O)OC2OC([C@H](COC(C)=O)OC(C)=O)C(OC(C)=O)C(OC(C)=O)C2OC(C)=O)O[C@H]1c1cnc2c(N)ncnn12 (stereo partly drawn) [Example 127C]", "quantity-name": "clearance", "value-observed": 17.6}
{"compound": "C=C[C@@]1(O)[C@H](O)[C@@H](COP(=O)(S)OP(=O)(O)OC2OC([C@H](COC(C)=O)OC(C)=O)C(OC(C)=O)C(OC(C)=O)C2OC(C)=O)O[C@H]1n1ccc(=O)[nH]c1=O (stereo partly drawn) [Example 43C]", "quantity-name": "clearance", "value-observed": 8.25}

----------
Experiment: PK / tissue distribution in Sprague-Dawley rats
Type: in vivo
Conditions: female, rat, plasma, PO 5 mg/kg, read-out: T1/2 post PO Dosing @5 mg/kg (converted)
Procedure: Tissue distribution study of the compounds disclosed herein were conducted in SD rats and mice to assess their liver-targeting properties. […] The pharmacokinetics of the compounds disclosed herein were evaluated in female Sprague-Dawley rats after administration via oral gavage and intravenous bolus (IV) injection. […] The samples were analyzed by LC/MS/MS and the concentrations of test compound and its metabolites at each time point were determined. […]

{"compound": "C=C[C@@]1(O)[C@H](O)[C@@H](COP(=O)(S)OP(=O)(O)OC2OC([C@H](COC(C)=O)OC(C)=O)C(OC(C)=O)C(OC(C)=O)C2OC(C)=O)O[C@H]1n1ccc(=O)[nH]c1=O (stereo partly drawn) [Example 43C]", "unit-info": "h", "half-life": 2.34}
{"compound": "CC(=O)OC[C@H](OC(C)=O)C1OC(OP(=O)(O)OP(=O)(S)OC[C@H]2O[C@@H](n3cnc4c(N)ncnc43)[C@H](N(C)C)[C@@H]2O)C(OC(C)=O)C(OC(C)=O)C1OC(C)=O (stereo partly drawn) [Example 35C]", "unit-info": "h", "half-life": 0.45}
{"compound": "C=C[C@@]1(O)[C@H](O)[C@@H](COP(=O)(S)OP(=O)(O)OC2OC([C@H](COC(C)=O)OC(C)=O)C(OC(C)=O)C(OC(C)=O)C2OC(C)=O)O[C@H]1n1cnc2c(N)ncnc21 (stereo partly drawn) [Example 31C]", "unit-info": "h", "half-life": 1.73}

----------
target: ALPK1 (Homo sapiens); construct: endogenous in cells; host or cells: 293T cells; experiment: NF-κB luciferase reporter assay in 293T cells (cellular assay); assay type: cell-based
Sequence (Q96QP1 whole entry): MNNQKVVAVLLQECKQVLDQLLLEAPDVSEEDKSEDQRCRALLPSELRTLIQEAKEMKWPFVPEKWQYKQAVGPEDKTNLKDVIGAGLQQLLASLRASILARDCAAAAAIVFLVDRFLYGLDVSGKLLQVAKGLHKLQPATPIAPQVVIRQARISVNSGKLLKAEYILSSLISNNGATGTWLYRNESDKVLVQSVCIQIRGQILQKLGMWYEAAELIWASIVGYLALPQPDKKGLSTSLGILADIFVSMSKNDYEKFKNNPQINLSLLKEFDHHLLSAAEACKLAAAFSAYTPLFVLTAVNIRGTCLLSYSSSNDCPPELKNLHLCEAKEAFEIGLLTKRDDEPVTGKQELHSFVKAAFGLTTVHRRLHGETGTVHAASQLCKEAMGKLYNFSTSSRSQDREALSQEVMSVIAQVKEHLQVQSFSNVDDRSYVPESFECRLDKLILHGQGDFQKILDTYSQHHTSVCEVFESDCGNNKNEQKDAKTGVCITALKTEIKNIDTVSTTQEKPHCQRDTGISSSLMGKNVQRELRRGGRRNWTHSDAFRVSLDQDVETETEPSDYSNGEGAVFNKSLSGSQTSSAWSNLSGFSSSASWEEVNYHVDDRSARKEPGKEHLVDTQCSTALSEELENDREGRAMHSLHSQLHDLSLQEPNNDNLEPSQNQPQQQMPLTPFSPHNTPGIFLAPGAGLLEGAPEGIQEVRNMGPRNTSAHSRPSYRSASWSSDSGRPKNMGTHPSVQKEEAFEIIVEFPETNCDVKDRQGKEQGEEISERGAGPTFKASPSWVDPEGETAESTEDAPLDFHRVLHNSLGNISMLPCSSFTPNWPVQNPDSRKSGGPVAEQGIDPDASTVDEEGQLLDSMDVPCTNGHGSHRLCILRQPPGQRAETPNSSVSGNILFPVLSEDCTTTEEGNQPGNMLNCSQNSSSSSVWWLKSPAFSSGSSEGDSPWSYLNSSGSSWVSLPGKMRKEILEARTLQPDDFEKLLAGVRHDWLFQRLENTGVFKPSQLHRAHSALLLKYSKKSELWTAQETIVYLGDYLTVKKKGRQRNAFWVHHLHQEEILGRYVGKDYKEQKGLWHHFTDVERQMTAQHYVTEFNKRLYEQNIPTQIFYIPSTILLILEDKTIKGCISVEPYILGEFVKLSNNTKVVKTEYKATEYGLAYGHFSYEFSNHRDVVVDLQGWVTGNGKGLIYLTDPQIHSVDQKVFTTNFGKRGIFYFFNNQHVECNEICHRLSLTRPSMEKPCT
Parameter: EC50. Scope: all listed entries.
quantity-name: EC50

{"molecule": "CS[C@@H]1[C@H](O)[C@@H](COP(=O)(S)OP(=O)(O)OC2OC([C@H](COC(C)=O)OC(C)=O)C(OC(C)=O)C(OC(C)=O)C2OC(C)=O)O[C@H]1n1ccc(=O)[nH]c1=O (stereo partly drawn) [Example 262C]", "study-system": "ALPK1 (Homo sapiens)", "value-observed": "36.3 nM"}
{"molecule": "CC(=O)N[C@@H]1[C@H](O)[C@@H](COP(=O)(S)OP(=O)(O)OC2OC([C@H](COC(C)=O)OC(C)=O)C(OC(C)=O)C(OC(C)=O)C2OC(C)=O)O[C@H]1n1cnc2c(N)ncnc21 (stereo partly drawn) [Example 33E]", "study-system": "ALPK1 (Homo sapiens)", "value-observed": "434 nM"}
{"molecule": "C#C[C@@]1(F)[C@H](O)[C@@H](COP(=O)(S)OP(=O)(O)OC2OC([C@H](COC(C)=O)OC(C)=O)C(OC(C)=O)C(OC(C)=O)C2OC(C)=O)O[C@H]1n1ccc(=O)[nH]c1=O (stereo partly drawn) [Example 22C]", "study-system": "ALPK1 (Homo sapiens)", "value-observed": "49.1 nM"}
